Ref: patent US10676465B2

- TGT: human GLP-1R (Homo sapiens (Human), UniProt P43220, L260F)
- Sequence (P43220 24-463 L260F): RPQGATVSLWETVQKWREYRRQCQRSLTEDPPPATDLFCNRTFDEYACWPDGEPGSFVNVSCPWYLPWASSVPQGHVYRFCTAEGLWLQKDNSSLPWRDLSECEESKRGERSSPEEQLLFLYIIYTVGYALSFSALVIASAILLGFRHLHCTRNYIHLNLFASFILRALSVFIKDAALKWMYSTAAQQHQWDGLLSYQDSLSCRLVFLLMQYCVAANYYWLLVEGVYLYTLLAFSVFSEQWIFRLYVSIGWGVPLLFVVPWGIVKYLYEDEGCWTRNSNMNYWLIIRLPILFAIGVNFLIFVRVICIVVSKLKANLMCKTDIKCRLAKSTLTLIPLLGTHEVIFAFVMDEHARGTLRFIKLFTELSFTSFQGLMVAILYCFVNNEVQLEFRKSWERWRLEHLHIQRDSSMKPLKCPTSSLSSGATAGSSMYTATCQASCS
- METHOD_SUMMARY: CHO GLP-1R Clone C6 - Assay 2 (HTRF cAMP agonist assay, low receptor density)
- CONDITION_PARAMETERS: read-out: Assay 2 EC50; CHO GLP-1R Clone C6 (low receptor density), cAMP HTRF; geometric mean
MEASURED_PROPERTY: EC50 (nM)

COMPOUND	UNIT_ABBREVIATION	VALUE
COCCn1c(CN2CCC(c3cccc4c3OC(C)(c3ccc(OC)cc3Cl)O4)CC2)nc2ccc(C(=O)O)cc21 (stereo not shown) [Example 83]	nM	44
COCCn1c(CN2CCC(c3cccc4c3OC(C)(c3ccc(F)cc3)O4)CC2)nc2ccc(C(=O)O)cc21 (stereo not shown) [Example 38]	nM	240

[I] CCc1ccc(C2(C)Oc3cccc(C4CCN(Cc5nc6ccc(C(=O)O)cc6n5CCOC)CC4)c3O2)cc1 (stereo not shown) [Example 29]
[II] CC1(c2ccc(Cl)cc2F)Oc2cccc(C3CCN(Cc4nc5ccc(C(=O)O)cc5n4CC4CCOC4)CC3)c2O1 (stereo not shown) [Example 56]
[III] COCCn1c(CN2CCC(c3cccc4c3OC(C)(c3ccccn3)O4)CC2)nc2ccc(C(=O)O)cc21 (stereo not shown) [Example 89]
[IV] COCCn1c(CN2CCC(c3cccc4c3OC(c3ccc(Cl)cc3F)O4)CC2)nc2ccc(C(=O)O)cc21 (stereo not shown) [Example 20]
[V] CC(=O)N(C)CCn1c(CN2CCC(c3cccc4c3OC(C)(c3ccc(Cl)cc3F)O4)CC2)nc2ccc(C(=O)O)cc21 (stereo not shown) [Example 43]
Ask | Put these in order: smallest EC50 first, largest last. Would you mind listing the labels in the order asked for?
Reply | II, V, I, IV, III

====

- TGT: human GLP-1R (Homo sapiens, UniProt P43220, G168S)
- Sequence (P43220 24-463 G168S limits assumed): as the sequence (P43220 24-463 L260F) above, with G145S, F237L counted along it
- METHOD_SUMMARY: CHO GLP-1R Clone H6 - Assay 1 (HTRF cAMP agonist assay)
- CONDITION_PARAMETERS: CHO GLP-1R Clone H6, cAMP HTRF; geometric mean
MEASURED_PROPERTY: EC50 (nM)

[P] CC1(c2ccc(Cl)cc2F)Oc2cccc(C3CCN(Cc4nc5ccc(C(=O)O)cc5n4Cc4cn[nH]c4)CC3)c2O1 (centres unmarked)
[Q] CC1(c2ccc(Cl)cc2F)Oc2c(F)ccc(C3CCN(Cc4nc5ccc(C(=O)O)cc5n4C[C@@H]4CCO4)CC3)c2O1 (single isomer, unassigned) [Example 97]
[R] COCCn1cnnc1Cn1c(CN2CCC(c3cccc4c3OC(C)(c3ccc(Cl)cc3F)O4)CC2)nc2ccc(C(=O)O)cc21 (centres unmarked)
[S] C[C@@]1(c2ccc(Cl)cc2F)Oc2cccc(C3CCN(Cc4nc5ccc(C(=O)O)cc5n4C[C@@H]4CCO4)CC3)c2O1
Ask | // rank above by EC50: first = highest number Would you mind listing the labels in the order asked for?
Reply | S, Q, R, P

====

- TGT: human GLP-1R (Homo sapiens (Human), UniProt P43220, L260F)
- METHOD_SUMMARY: CHO GLP-1R Clone C6 - Assay 2 (HTRF cAMP agonist assay, low receptor density)
- CONDITION_PARAMETERS: read-out: Assay 2 EC50; CHO GLP-1R Clone C6 (low receptor density), cAMP HTRF; geometric mean
MEASURED_PROPERTY: EC50 (nM)

Examples with answers:
MOLECULE	EC50, nM
CC1(c2ccc(Cl)cc2F)Oc2cccc(C3CCN(Cc4nc5ccc(C(=O)O)cc5n4Cc4ccccn4)CC3)c2O1 (centres unmarked)	220
CCn1nncc1Cn1c(CN2CCC(c3cccc4c3OC(C)(c3ccc(Cl)cc3F)O4)CC2)nc2ccc(C(=O)O)cc21 (centres unmarked)	7.6
CN(C)S(=O)(=O)CCn1c(CN2CCC(c3cccc4c3OC(C)(c3ccc(Cl)cc3F)O4)CC2)nc2ccc(C(=O)O)cc21 (centres unmarked)	1400
CC1(c2ccc(Cl)cc2F)Oc2cccc(C3CCN(Cc4nc5ccc(C(=O)O)cc5n4CCn4ccnc4)CC3)c2O1 (centres unmarked)	140
Cn1cc(CCn2c(CN3CCC(c4cccc5c4OC(C)(c4ccc(Cl)cc4F)O5)CC3)nc3ccc(C(=O)O)cc32)nn1 (centres unmarked)	240

[1] CC1(c2ccc(Cl)cc2F)Oc2cccc(C3CCN(Cc4nc5ccc(C(=O)O)cc5n4C[C@H]4CCCO4)CC3)c2O1 (some centres unmarked)
[2] CC1(c2ccc(Cl)cc2F)Oc2cccc(C3CCN(Cc4nc5ccc(C(=O)O)cc5n4CC4(O)CCC4)CC3)c2O1 (centres unmarked)
[3] CC1(c2ccc(Cl)cc2F)Oc2cccc(C3CCN(Cc4nc5ccc(C(=O)O)cc5n4CCN4CCOC4=O)CC3)c2O1 (centres unmarked)
Ask | Put these in order: smallest EC50 first, largest last. Would you mind listing the labels in the order asked for?
Reply | 3, 1, 2
